Target: UniProt P04585
Assay: biochemical
Details: Table 12; HIV-1 protease; read-out: Ki
pKi: −log10 of the molar value.
Please go through the items and note down their pKi.

Study these solved cases before continuing.
* COc1ccc(S(=O)(=O)N(CCCCC2(C)OCCO2)C[C@@H](O)[C@H](Cc2ccccc2)NC(=O)OC(C)(C)C)cc1 [Compound 204] | 8.00 to 9.00
* COc1ccc(S(=O)(=O)N(CCC(C)=O)C[C@@H](O)[C@H](Cc2ccccc2)NC(=O)OC2COCOC2)cc1 [Compound 281] | 8.00 to 9.00
* CCC(CCC#N)CN(CC(O)C(Cc1ccccc1)NC(=O)OC1CCOC1)S(=O)(=O)c1ccc(OC)cc1 (stereo not shown) [Compound 9] | > 9.00
* CC(C)(CCCC#N)CN(CC(O)C(Cc1ccccc1)NC(=O)OC1COC2OCCC12)S(=O)(=O)c1ccc2c(c1)OCCO2 (stereo not shown) [Compound 40] | > 9.00

Consider the following items and state reported pKi for each.
1. COc1ccc(S(=O)(=O)N(C[C@@H](O)[C@H](Cc2ccccc2)NC(=O)OC2COCOC2)CC(C)(C)CCC#N)cc1 [Compound 19]
2. CC(C)(CCCCNS(C)(=O)=O)CN(C[C@@H](O)[C@H](Cc1ccccc1)NC(=O)O[C@H]1CO[C@H]2OCC[C@H]21)S(=O)(=O)c1ccc2c(c1)OCCO2 [Compound 256]
3. CCC(CCC(C)=O)CN(CC(O)[C@H](Cc1ccccc1)NC(=O)OC1CCOC1)S(=O)(=O)c1ccc(OC)cc1 (stereo partly shown) [Compound 206]

Completion:
["> 9.00", "> 9.00", "> 9.00"]

Please give pKi, item by item, for the list that follows.
1. CC(=O)Nc1cccc(S(=O)(=O)N(C[C@@H](O)[C@H](Cc2ccccc2)NC(=O)O[C@H]2CO[C@H]3OCC[C@H]32)CC(C)(C)CCC#N)c1 [Compound 31]
2. CC(C)(C)OC(=O)N[C@@H](Cc1ccccc1)[C@H](O)CN(CCC#N)S(=O)(=O)c1cccc(N)c1 [Compound 127]
3. CC(C)(CCC#N)CN(C[C@@H](O)[C@H](Cc1ccccc1)NC(=O)OC1COCOC1)S(=O)(=O)c1ccc2c(c1)OCO2 [Compound 36]
4. CC(C)(CCC#N)CN(CC(O)C(Cc1ccccc1)NC(=O)OC1COC2OCCC12)S(=O)(=O)c1ccc(O)cc1 (stereo not shown) [Compound 35]

Completion:
1: > 9.00; 2: 7.00 to 8.00; 3: > 9.00; 4: > 9.00

Hi team, please reply with pKi for each item in this list.
1. COC(=N[N+](=O)[O-])NCCC(C)(C)CN(CC(O)C(Cc1ccccc1)NC(=O)OC1COC2OCCC12)S(=O)(=O)c1ccc(OC)cc1 (stereo not shown) [Compound 223]
2. CCOC(=O)NCCCC(C)(C)CN(CC(O)C(Cc1ccccc1)NC(=O)OC1COC2OCCC12)S(=O)(=O)c1ccc(OC)cc1 (stereo not shown) [Compound 230]

Completion:
> 9.00
> 9.00
